Here's what we have: IC50 numbers for CSNK1A1 (Homo sapiens (Human), UniProt P48729).
Numbers only, in nM.

Reference set, count: 5
COMPOUND	IC50, nM
O=C1NCCc2[nH]c(-c3ccnc(NC(=O)C(CC(F)F)c4ccc(F)cc4)c3)c(-c3ccccc3)c21 (racemic) [Example 75]	2.7
CC(C(=O)Nc1cc(-c2[nH]c3c(c2-c2ccccc2)C(=O)NCC3(C)C)ccn1)c1ccc(F)cc1 (racemic) [Example 46]	2.7
O=C(Nc1cc(-c2[nH]c3ccn(C4CC4)c(=O)c3c2-c2ccccc2)ccn1)C(CC(F)F)c1ccc(F)cc1 (racemic) [Example 137]	2.6
CC1(C)CNC(=O)c2c1[nH]c(-c1ccnc(NC(=O)C(CC(F)F)c3ccc(F)cc3)c1)c2-c1ccccc1 (single isomer, unassigned) [Example 45]	2
Cn1cc(CC(F)F)c2[nH]c(-c3ccnc(NC(=O)C(CC(F)F)c4ccc(F)cc4)c3)c(-c3ccccc3)c2c1=O (single isomer, unassigned) [Example 148]	12

Alright, here's another compound for you.
Notebook: pull reported IC50 for CSNK1A1 (Homo sapiens (Human), UniProt P48729), entry Cn1cc(CC(F)(F)F)c2[nH]c(-c3ccnc(NC(=O)C(CC(F)F)c4ccc(F)cc4)c3)c(-c3ccccc3)c2c1=O (single isomer, unassigned; (+)) [Example 20]
14
